run-description: Inhibition of Penicillium decumbens alpha-L-rhamnosidase
Listing of entries alongside the reported IC50.

compound-string: OC[C@H](O)[C@@H]1NC[C@@H]1O
IC50 [µM]: 634

compound-string: O[C@H]1CCCN2C[C@H](O)[C@H]12
IC50 [µM]: 117

====

subject-of-test: Tissue alpha-L-fucosidase (Bos taurus)
run-description: Inhibition of bovine alpha-L-fucosidase at 1000 uM
Listing of entries alongside the reported inhibition.

compound-string: O[C@H]1CCCN2C[C@H](O)[C@H]12
inhibition, %: 0
//
compound-string: OC[C@H](O)[C@@H]1NC[C@@H]1O
inhibition, %: 4.6
//
compound-string: O[C@@H]1[C@H](O)[C@H]2[C@@H](O)CN2C[C@H]1O
inhibition, %: 2
//
compound-string: O=C1CC[C@H](O)[C@H]2[C@@H](O)CN12
inhibition, %: 0
